// values below are reported IC50
# Test system: Radical scavenging activity
# assay-overview: Antioxidant activity assessed as DPPH radical scavenging activity
# Assay type: functional
Output spec: scalar in µM, unitless text.

Known results for molecules:
COc1cc(NCCC(=O)N2c3ccccc3C=Cc3ccccc32)ccc1O : 13.9
O=C(CCNc1cccc(O)c1)N1c2ccccc2C=Cc2ccccc21 : 17.4
O=C1O[C@H]([C@@H](O)CO)C(O)=C1O [ASCORBIC ACID] : 13.2
O=C(CCNc1ccccc1O)N1c2ccccc2C=Cc2ccccc21 : 16.1
O=C(CCNc1ccc(O)c([N+](=O)[O-])c1)N1c2ccccc2C=Cc2ccccc21 : 14.8
COc1ccc(O)c(C(C)(C)C)c1.COc1ccc(O)cc1C(C)(C)C [BUTYLATED HYDROXYANISOLE] : 14.1

As a next step, examine the molecule that follows.
The molecule listed as O=C(CCNc1ccc(O)cc1)N1c2ccccc2C=Cc2ccccc21 has a reported IC50 of 15.3
